Test system: MV4,11 cells
Assay: FLT3 assay using MV4,11 cells (cell proliferation, MTS)
Format: cell-based
Conditions: Homo sapiens, MV 4,11 cells, 0.5% serum, read-out: (MV 4,11) Cell Proliferation Assay with 0.5% Serum IC50 (nM) “CS0001”
Listing: IC50 of selected molecules

COc1ccc(-c2cc3c(Sc4ccccc4)ncnc3[nH]2)cc1 [Compound J16]	< 100 nM
COc1ccc(-c2cc3c(Sc4ccc(F)c(Cl)c4)ncnc3[nH]2)cc1 [Compound J37]	100 to 1000 nM
COc1ccc(-c2cc3c(Sc4cc(C)cc(C)c4)ncnc3[nH]2)cc1 [Compound J5]	< 100 nM

Fill in the recorded IC50 for this molecule, with MV4,11 cells as test system: Clc1ccc(Sc2ncnc3c2[nH]c2ccccc23)cc1Cl [Compound K5]
> 10000 nM
